assay: Stability in dog liver microsomes assessed as hepatic clearance; type: ADME, Canis lupus familiaris, Microsome
A collection of compounds and their measured CLhep predicted

COMPOUND | CLhep predicted / L/h/kg
Cc1c(NC(=O)CCN2CCCC2)c[nH]c1/C=C1\C(=O)Nc2ccc(F)cc21 | 0.774
Cc1c(NC(=O)CN2CCN(CC3CCN(c4ccc5c(c4)C(=O)N(C4CCC(=O)NC4=O)C5=O)CC3)CC2)c[nH]c1/C=C1\C(=O)Nc2ccc(F)cc21 (configuration not stated) | 0.678

###

experiment: Stability in dog liver microsomes assessed as half life; type: ADME, Canis lupus familiaris, Microsome
A collection of compounds and their measured half-life

COMPOUND | half-life (h)
Cc1c(NC(=O)CN2CCN(CC3CCN(c4ccc5c(c4)C(=O)N(C4CCC(=O)NC4=O)C5=O)CC3)CC2)c[nH]c1/C=C1\C(=O)Nc2ccc(F)cc21 (configuration not stated) | 1.88
Cc1c(NC(=O)CCN2CCCC2)c[nH]c1/C=C1\C(=O)Nc2ccc(F)cc21 | 1.5

###

A collection of compounds and their measured CLhep predicted
assay: Stability in rat liver microsomes assessed as hepatic clearance; type: ADME, Microsome
PARAMETER MEASURED: CLhep predicted

COMPOUND | PARAMETER MEASURED | RECORDED VALUE
Cc1c(NC(=O)CCN2CCCC2)c[nH]c1/C=C1\C(=O)Nc2ccc(F)cc21 | CLhep predicted | 27.7 mL/min/kg
Cc1c(NC(=O)CN2CCN(CC3CCN(c4ccc5c(c4)C(=O)N(C4CCC(=O)NC4=O)C5=O)CC3)CC2)c[nH]c1/C=C1\C(=O)Nc2ccc(F)cc21 (configuration not stated) | CLhep predicted | 20.5 mL/min/kg

###

molecular target: Cytochrome P450 2C19 (Homo sapiens, UniProt P33261)
Sequence (P33261 whole entry): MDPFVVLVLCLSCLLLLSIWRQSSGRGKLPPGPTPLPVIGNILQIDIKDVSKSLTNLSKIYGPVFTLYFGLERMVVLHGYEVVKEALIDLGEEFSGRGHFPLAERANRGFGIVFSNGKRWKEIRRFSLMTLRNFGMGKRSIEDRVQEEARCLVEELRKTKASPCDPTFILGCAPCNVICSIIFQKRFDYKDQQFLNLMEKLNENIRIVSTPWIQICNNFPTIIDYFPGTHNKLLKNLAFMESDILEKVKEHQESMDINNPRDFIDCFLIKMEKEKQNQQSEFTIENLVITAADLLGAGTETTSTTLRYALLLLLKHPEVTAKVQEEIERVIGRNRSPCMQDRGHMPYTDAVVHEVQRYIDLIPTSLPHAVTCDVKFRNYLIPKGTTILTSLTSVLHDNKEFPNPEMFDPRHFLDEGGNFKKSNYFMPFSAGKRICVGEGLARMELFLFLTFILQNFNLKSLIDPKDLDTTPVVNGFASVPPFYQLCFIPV
pIC50: −log10 of the molar value.

COMPOUND | pIC50
Cc1c(NC(=O)CN2CCN(CC3CCN(c4ccc5c(c4)C(=O)N(C4CCC(=O)NC4=O)C5=O)CC3)CC2)c[nH]c1/C=C1\C(=O)Nc2ccc(F)cc21 (stereo unspecified) | < 4.30

###

molecular target: Cytochrome P450 2D6 (Homo sapiens); experiment: Inhibition of CYP2D6 (unknown origin); type: ADME
Sequence (P10635 whole entry): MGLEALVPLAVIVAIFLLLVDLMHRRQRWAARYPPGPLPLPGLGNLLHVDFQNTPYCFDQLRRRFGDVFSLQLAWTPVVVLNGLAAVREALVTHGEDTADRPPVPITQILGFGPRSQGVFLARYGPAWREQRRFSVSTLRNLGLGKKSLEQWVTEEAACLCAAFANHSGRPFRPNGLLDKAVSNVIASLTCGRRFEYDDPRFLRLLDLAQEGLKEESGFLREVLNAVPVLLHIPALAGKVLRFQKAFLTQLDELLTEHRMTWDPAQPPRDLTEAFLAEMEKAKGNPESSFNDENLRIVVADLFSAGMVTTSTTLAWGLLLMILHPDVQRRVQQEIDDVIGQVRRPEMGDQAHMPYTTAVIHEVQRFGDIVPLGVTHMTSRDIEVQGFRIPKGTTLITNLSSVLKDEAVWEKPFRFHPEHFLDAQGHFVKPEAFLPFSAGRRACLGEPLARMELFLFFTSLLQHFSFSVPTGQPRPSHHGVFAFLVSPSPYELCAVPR
pIC50: −log10 of the molar value.

COMPOUND | pIC50
Cc1c(NC(=O)CN2CCN(CC3CCN(c4ccc5c(c4)C(=O)N(C4CCC(=O)NC4=O)C5=O)CC3)CC2)c[nH]c1/C=C1\C(=O)Nc2ccc(F)cc21 (stereo unspecified) | < 4.30

###

experiment: Clearance in Sprague-Dawley rat at 10 mg/kg, po measured for 24 hrs by LC-MS/MS analysis; type: ADME, organism-based; details: in vivo
PARAMETER MEASURED: CL/F (mL/min/kg)

COMPOUND | RECORDED VALUE
Cc1c(NC(=O)CN2CCN(CC3CCN(c4ccc5c(c4)C(=O)N(C4CCC(=O)NC4=O)C5=O)CC3)CC2)c[nH]c1/C=C1\C(=O)Nc2ccc(F)cc21 (stereo unspecified) | 11.2

###

experiment: Cmax in Sprague-Dawley rat at 10 mg/kg, po measured for 24 hrs by LC-MS/MS analysis; assay type: ADME, organism-based; conditions: in vivo
PARAMETER MEASURED: Cmax (ng/mL)

COMPOUND | PARAMETER MEASURED | RECORDED VALUE
Cc1c(NC(=O)CN2CCN(CC3CCN(c4ccc5c(c4)C(=O)N(C4CCC(=O)NC4=O)C5=O)CC3)CC2)c[nH]c1/C=C1\C(=O)Nc2ccc(F)cc21 (stereo unspecified) | Cmax | 1120
